assay-system: HCV NS3 helicase NS3h_1b(con1) (Hepatitis C virus genotype 1b)
Construct: truncated C-terminally His-tagged NS3 proteins lacking the N-terminal protease, called NS3h; His-tag (C); made in house
Sequence (Q9WMX2 1192-1657): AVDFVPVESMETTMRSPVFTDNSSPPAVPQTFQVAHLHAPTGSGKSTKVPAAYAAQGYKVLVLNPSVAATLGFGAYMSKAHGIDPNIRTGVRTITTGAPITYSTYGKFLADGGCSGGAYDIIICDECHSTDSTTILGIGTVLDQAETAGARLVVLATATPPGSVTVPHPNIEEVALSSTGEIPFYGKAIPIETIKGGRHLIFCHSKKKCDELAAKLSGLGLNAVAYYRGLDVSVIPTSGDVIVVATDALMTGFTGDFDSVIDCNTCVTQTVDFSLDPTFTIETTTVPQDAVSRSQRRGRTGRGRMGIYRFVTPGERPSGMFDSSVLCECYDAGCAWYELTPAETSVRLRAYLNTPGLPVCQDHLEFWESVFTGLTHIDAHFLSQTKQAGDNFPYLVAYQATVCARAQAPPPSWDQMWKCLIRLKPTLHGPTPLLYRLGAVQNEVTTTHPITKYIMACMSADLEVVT
assay-text: MBHA screen of NCI mechanistic set library at 20 μM (percent inhibition, compound interference)
Assay type: biochemical
assay-context: compounds at 20 μM, MBHA with DNA substrate; assay interference calculated with Equation 2
Starred links: 1 amine or outer side, 2 acyl side, 3 side chain; linkers in the order of their positions; H or OH if unused. Positions of bridges follow the written chain, without caps; N, C: chain ends. Non-standard residues stand in square brackets, D forms with d. Residues, ends and D or L forms follow the SMILES beside them. Chains are numbered I, II in the order given. Actinocin(9to1) = Cc1c2oc3c(C)ccc(C(=O)[*:1])c3nc-2c(C(=O)[*:2])c(N)c1=O; NMeV = CN[C@H](C(=O)O)C(C)C; Sar = CNCC(=O)O
quantity: Int.* (Ratio) (Interference)

COC(=O)c1cc(-c2c[nH]cc2C(=O)OCc2ccccc2)cn1S(=O)(=O)c1ccc(C)cc1 ... 0.98
NC(=O)c1csc(C2OC(CO)C(O)C2O)n1 (stereo not drawn) ... 1.13
O=c1c(O)c(-c2ccc(O)c(O)c2)oc2cc(O)ccc12 ... 0.90
Cc1c2oc3c(C)ccc(C(=O)N[C@@H]4C(=O)N[C@H](C(C)C)C(=O)N5CCC[C@H]5C(=O)N(C)CC(=O)N(C)[C@@H](C(C)C)C(=O)O[C@@H]4C)c3nc-2c(C(=O)N[C@@H]2C(=O)N[C@H](C(C)C)C(=O)N3CCC[C@H]3C(=O)N(C)CC(=O)N(C)[C@@H](C(C)C)C(=O)O[C@@H]2C)c(N)c1=O [Compound 3053] (I: T[dV]P[Sar][NMeV] / II: T[dV]P[Sar][NMeV]; ester I:1-I:C, II:1-II:C; linker I:N-II:N via Actinocin(9to1)) ... 0.55
NC(=O)C#CC(N)=O ... 0.96
COc1cc(OC)c(OC)cc1/C=C/c1ccnc2ccccc12 ... 0.97

---

assay-system: HCV NS3 helicase NS3h_1b(con1) (Hepatitis C virus genotype 1b)
Construct: truncated C-terminally His-tagged NS3 proteins lacking the N-terminal protease, called NS3h; His-tag (C); made in house
assay-text: MBHA screen of NCI mechanistic set library at 20 μM (percent inhibition, compound interference)
Type: biochemical
assay-context: compounds at 20 μM, MBHA with DNA substrate; calculated from Equation 1
quantity: Inh. (%) (Inhibition)

Cc1c(Cl)cccc1NC(=O)/C=C/c1ccccc1 ... 2.5
O=C1OC(c2ccccc2)=N/C1=C\c1ccc(N(CCCl)CCCl)cc1 ... −14.5
Fc1cccc(F)c1C1SCc2nc3ccccc3n21 (centres unmarked) ... −0.1

A: COC(=O)C1CCC(=O)N1C(c1ccc(OC)cc1)c1cc(OC)c(OC)c(OC)c1 (centres unmarked)
B: O=C1Nc2c(Cl)cc(Cl)cc2C1=NN=Cc1ccco1
Would you mind telling me which has the lower recorded Inh. (%) (Inhibition) between A and B ? Indicate your choice by writing its label.
A
(A: −9.6%, B: 1.9%)

---

assay-system: NS3h_2a (Hepatitis C virus genotype 2a, UniProt Q99IB8)
Construct: truncated C-terminally His-tagged NS3 proteins lacking the N-terminal protease, called NS3h; His-tag (C)
Sequence (Q99IB8 1196-1661): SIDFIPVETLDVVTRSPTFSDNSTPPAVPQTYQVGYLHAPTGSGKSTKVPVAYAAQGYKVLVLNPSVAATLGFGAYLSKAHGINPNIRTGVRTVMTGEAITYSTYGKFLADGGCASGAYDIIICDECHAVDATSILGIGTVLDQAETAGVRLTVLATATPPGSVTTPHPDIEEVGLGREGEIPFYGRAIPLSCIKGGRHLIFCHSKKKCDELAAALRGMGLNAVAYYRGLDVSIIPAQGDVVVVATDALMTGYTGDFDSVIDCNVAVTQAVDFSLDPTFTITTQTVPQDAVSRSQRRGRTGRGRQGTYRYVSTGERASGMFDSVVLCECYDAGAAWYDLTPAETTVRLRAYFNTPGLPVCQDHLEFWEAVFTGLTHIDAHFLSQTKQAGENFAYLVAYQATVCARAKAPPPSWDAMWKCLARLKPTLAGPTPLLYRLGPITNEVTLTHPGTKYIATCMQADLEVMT
assay-text: RNA helicase assay (three-stranded RNA substrate)
Experimental: To act as antivirals in cells, it is also important for an HCV helicase inhibitor to inhibit the activity of the NS3h on RNA. […] As with protein specificity, no differences were uncovered regarding substrate specificity for any of the compounds tested. In other words, none of the compounds preferred to act either on DNA or RNA substrates.
pIC50 listing for selected molecules.
Remember, pIC50 is on a log scale: it is -log10 of the molar concentration.

Cc1ccc2nc(-c3ccc4nc(-c5ccc(N)cc5)sc4c3)sc2c1S(=O)(=O)O [Compound P2a] ... 4.49
Cc1ccc2nc(-c3ccc4nc(-c5ccc(NC(=O)c6cc(C(F)(F)F)ccc6F)cc5)sc4c3)sc2c1S(=O)(=O)O [Compound 25] ... 5.00
Cc1ccc2nc(-c3ccc4nc(-c5ccc(NC(=O)c6ccc(F)cc6)cc5)sc4c3)sc2c1S(=O)(=O)O.N [Compound 7] ... 5.40
Cc1ccc2nc(-c3ccc4nc(-c5ccc(NC(=O)c6ccc(Br)cc6)cc5)sc4c3)sc2c1S(=O)(=O)O [Compound 15] ... 5.40
Cc1ccc2nc(-c3ccc4nc(-c5ccc(NC(=O)c6ccc7ccccc7c6)cc5)sc4c3)sc2c1S(=O)(=O)O [Compound 33] ... 5.52
Cc1ccc2nc(-c3ccc4nc(-c5ccc6nc(-c7ccc8nc(-c9ccc(N)cc9)sc8c7)sc6c5)sc4c3)sc2c1S(=O)(=O)O [Compound P4] ... 5.52
Cc1ccc2nc(-c3ccc4nc(-c5ccc(NC(=O)c6ccc(Cl)c(Cl)c6)cc5)sc4c3)sc2c1S(=O)(=O)O [Compound 18] ... 5.40
Cc1ccc2nc(-c3ccc4nc(-c5ccc(NC(=O)c6cccc(Cl)c6)cc5)sc4c3)sc2c1S(=O)(=O)O [Compound 17] ... 5.22
Cc1ccc2nc(-c3ccc4nc(-c5ccc(NC(=O)c6ccc7nc(-c8ccc(N)cc8)sc7c6)cc5)sc4c3)sc2c1S(=O)(=O)O [Compound 35] ... 5.22

Moving on to the next molecule.
GET /values?readout=pIC50&item= Cc1ccc2nc(-c3ccc4nc(-c5ccc(NC(=O)c6ccc(C(C)(C)C)cc6)cc5)sc4c3)sc2c1S(=O)(=O)O [Compound 13]
5.05

---

assay-system: HCV NS3 helicase NS3h_1b(con1) (Hepatitis C virus genotype 1b)
Construct: truncated C-terminally His-tagged NS3 proteins lacking the N-terminal protease, called NS3h; His-tag (C); made in house
assay-text: MBHA screen of NCI mechanistic set library at 20 μM (percent inhibition, compound interference)
Format: biochemical
assay-context: compounds at 20 μM; assay interference calculated with Equation 2 (fluorescence vs DMSO-only controls before ATP)
quantity: Int.* (Ratio) (Interference)

CC(C)(C)C1CCC2(CC1)CCN(CCCN1CCOCC1)CC2 ... 1.16
Cc1nc(Nc2ccc(Cl)c(Cl)c2)sc1C(/C=C/c1ccc2c(c1)OCO2)=N/Nc1ccc([N+](=O)[O-])cc1[N+](=O)[O-] ... 0.91
COCC(=O)OC1CCn2c1nc1c2C(=O)C(C)=C(NC(C)=O)C1=O (centres unmarked) ... 0.95
CCc1cccc(CC)c1NC(=O)C(C#N)C1=C(Cl)C(=O)c2ccccc2C1=O (centres unmarked) ... 0.93
CC(=O)OCc1cc(=O)n(C)c2c3c4c(cc12)c(C)cc(=O)n4CO3 ... 1.11
COc1ccc(C2=Nc3ccccc3SC(C)C2)cc1 (centres unmarked) ... 1.07
N[C@@H](CSC(c1ccccc1)(c1ccccc1)c1ccccc1)C(=O)O ... 0.98
O=C1NC(c2cccc3ccccc23)Nc2ccc(Cl)cc21 (centres unmarked) ... 0.96
Cc1cc(Cl)cc2c1NC(=O)C2(O)C(C(=O)c1ccccc1)c1ccccc1 (centres unmarked) ... 0.96
O=C1c2ccccc2C(=O)c2nc(-c3ccccc3)c(-c3ccccc3)nc21 ... 0.90
N#Cc1ccccc1NC(=O)C(=O)C(C(=O)c1ccccc1F)C1OC(=O)c2ccccc21 (centres unmarked) ... 0.87
OCCOc1ccc(-c2cc(-c3ccccn3)nc(-c3ccccn3)c2)cc1 ... 0.91
N#CC(=S)Nc1ccc(Cl)c(Cl)c1 ... 0.89
N#Cc1cn([C@@H]2O[C@H](CO)[C@@H](O)[C@H]2O)c2ncnc(N)c12 ... 0.98
Cc1cc(N(CCCl)CCCl)ccc1/C=N/NC(=O)Cc1cc(=O)oc2cc(O)ccc12 ... 0.97
COc1cc2oc3cc(=O)cc4oc(-c5ccccc5)cc(c2c2c1CCC(c1ccccc1)O2)c43 (centres unmarked) ... 0.80
COc1c(O[C@@H]2O[C@H](CO)[C@@H](O)[C@H](O)[C@H]2O)cc2c(c1OC)-c1ccc(OC)c(=O)cc1[C@@H](NC(C)=O)CC2 ... 1.04

---

assay-text: Absorbance and fluorescence properties
Type: physicochemical
assay-context: extinction coefficient
quantity: Absorbance ∈

// below: answered compounds
Cc1ccc2nc(-c3ccc4nc(-c5ccc(NC(=O)c6cc(C(F)(F)F)ccc6F)cc5)sc4c3)sc2c1S(=O)(=O)O ... 41,750 M^−1cm^−1
Cc1ccc2nc(-c3ccc4nc(-c5ccc(NC(=O)c6ccc(C(F)(F)F)cc6)cc5)sc4c3)sc2c1S(=O)(=O)O ... 42,750 M^−1cm^−1
Cc1ccc2nc(-c3ccc4nc(-c5ccc6nc(-c7ccc8nc(-c9ccc(N)cc9)sc8c7)sc6c5)sc4c3)sc2c1S(=O)(=O)O ... 32,000 M^−1cm^−1

Now for another entry.
Using the record for Cc1ccc2nc(-c3ccc4nc(-c5ccc(NC(=O)c6ccc7ccccc7c6)cc5)sc4c3)sc2c1S(=O)(=O)O , report its Absorbance ∈.
63,450 M^−1cm^−1
